- target-system: G protein-coupled receptor kinase 6 (Homo sapiens) (UniProt P43250)
- Sequence (P43250 whole entry, looked up): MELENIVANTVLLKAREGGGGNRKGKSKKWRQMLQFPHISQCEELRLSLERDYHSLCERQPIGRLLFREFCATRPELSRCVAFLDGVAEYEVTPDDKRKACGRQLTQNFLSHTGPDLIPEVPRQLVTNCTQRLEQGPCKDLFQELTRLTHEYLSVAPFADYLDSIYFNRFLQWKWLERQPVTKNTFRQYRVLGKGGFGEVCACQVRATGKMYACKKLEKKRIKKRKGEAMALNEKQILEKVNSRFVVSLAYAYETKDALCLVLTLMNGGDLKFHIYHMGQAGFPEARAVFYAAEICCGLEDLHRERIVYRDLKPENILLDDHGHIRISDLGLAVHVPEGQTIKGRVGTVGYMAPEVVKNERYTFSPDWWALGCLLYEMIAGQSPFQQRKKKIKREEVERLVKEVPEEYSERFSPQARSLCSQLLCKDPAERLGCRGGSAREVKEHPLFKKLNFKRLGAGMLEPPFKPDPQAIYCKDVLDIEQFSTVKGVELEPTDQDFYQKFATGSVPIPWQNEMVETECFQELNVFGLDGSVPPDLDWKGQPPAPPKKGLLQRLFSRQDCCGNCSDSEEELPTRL
- stated-conditions: at 1 µM
readout-name: residual activity (%)

smiles_text=Cn1nc2c3c(cccc31)C(=O)c1ccccc1-2 readout_name="residual activity" observed_measurement=93
smiles_text=Nc1ncnc2c1cnn2-c1ccccc1 readout_name="residual activity" observed_measurement=93
smiles_text=CCN(CC)C(=O)c1ccc(Nc2nc(OCC3CCCCC3)c3nc[nH]c3n2)cc1 readout_name="residual activity" observed_measurement=97
smiles_text=O=C(Nc1cccc(Nc2nccc(Nc3cccc(C(F)(F)F)c3)n2)c1)C1CC1 readout_name="residual activity" observed_measurement=99
smiles_text=Oc1n[nH]c2nnc(-c3c(-c4ccccc4)nn4ccccc34)cc12 readout_name="residual activity" observed_measurement=83
smiles_text=Cc1cc(Nc2nc(-c3ccccc3)nc3ccccc23)n[nH]1 readout_name="residual activity" observed_measurement=76
smiles_text=Nc1ccc2ncnc(NCCc3ccc(Oc4ccccc4)cc3)c2c1 readout_name="residual activity" observed_measurement=105
smiles_text=CCOc1cc2ncnc(Nc3cccc(Br)c3)c2cc1OCC readout_name="residual activity" observed_measurement=100
smiles_text=CC(C)c1nn(-c2c(Cl)cccc2Cl)c2nc(Cc3ccc(OCCO)cc3)[nH]c(=O)c12 readout_name="residual activity" observed_measurement=96
smiles_text=CC(C)(C)c1cc(C=C(C#N)C#N)cc(Br)c1O readout_name="residual activity" observed_measurement=106
smiles_text=NC(=O)Nc1sc(-c2ccc(F)cc2)cc1C(N)=O readout_name="residual activity" observed_measurement=85
smiles_text=O=C(Nc1cccc(Nc2cc(Nc3cccc(C(F)(F)F)c3)ncn2)c1)C1CC1 readout_name="residual activity" observed_measurement=98
smiles_text=CC(C)n1cnc2c(NCc3ccccc3)nc(NCCCO)nc21 readout_name="residual activity" observed_measurement=96
smiles_text=Nc1ncnc2[nH]nc(Nc3ccc(F)cc3)c12 readout_name="residual activity" observed_measurement=97
smiles_text=O=C1NC(=O)c2c1c1c3ccccc3[nH]c1c1[nH]c3cc(Br)ccc3c21 readout_name="residual activity" observed_measurement=102
smiles_text=O=[N+]([O-])/C=C/c1ccc2c(c1)OCO2 readout_name="residual activity" observed_measurement=105
smiles_text=CN(C)c1ccc(/C=C2\C(=O)Nc3ccccc32)cc1 readout_name="residual activity" observed_measurement=97
smiles_text=Nc1n[nH]c2nnc(-c3c(-c4ccccc4)nn4ccccc34)cc12 readout_name="residual activity" observed_measurement=87
smiles_text=COc1cc2nccc(Oc3ccc(NC(=S)NC(=O)c4ccccc4C)cc3)c2cc1OC readout_name="residual activity" observed_measurement=87
smiles_text=Cc1nc(-c2ccccc2)c(-c2ccncc2)o1 readout_name="residual activity" observed_measurement=103
smiles_text=Cc1cc2ncc(-c3ccccc3)nc2cc1C readout_name="residual activity" observed_measurement=95
smiles_text=O=c1[nH]c2ccccc2n1C1CCN(Cc2ccc(-c3nc4cc5[nH]cnc5cc4nc3-c3ccccc3)cc2)CC1 readout_name="residual activity" observed_measurement=100
smiles_text=N#C/C(=C(\N)Sc1ccc(N)cc1)c1ccccc1C(F)(F)F readout_name="residual activity" observed_measurement=86

###

- target-system: Death-associated protein kinase 3 (Homo sapiens)
- stated-conditions: at 1 µM
readout-name: residual activity (%)

compound=O=c1[nH]c2ccccc2n1C1CCN(Cc2ccc(-c3nc4cc5[nH]cnc5cc4nc3-c3ccccc3)cc2)CC1 target_system="Death-associated protein kinase 3 (Homo sapiens)" readout_name="residual activity" observed_measurement=100
compound=COc1ccc2c(c[n+](C)c3c4cc5c(cc4ccc23)OCO5)c1OC target_system="Death-associated protein kinase 3 (Homo sapiens)" readout_name="residual activity" observed_measurement=94
compound=COc1cc2ncnc(Nc3ccc(OCc4ccccc4)cc3)c2cc1OC target_system="Death-associated protein kinase 3 (Homo sapiens)" readout_name="residual activity" observed_measurement=86
compound=CC(C)[C@H](CO)Nc1nc(Nc2cccc(Cl)c2)c2ncn(C(C)C)c2n1 target_system="Death-associated protein kinase 3 (Homo sapiens)" readout_name="residual activity" observed_measurement=96
compound=O=[N+]([O-])/C=C/c1ccc2c(c1)OCO2 target_system="Death-associated protein kinase 3 (Homo sapiens)" readout_name="residual activity" observed_measurement=96
compound=O=C1NC(=O)c2c1c1c3ccccc3n3c1c1c2c2ccccc2n1C1CCC3O1 target_system="Death-associated protein kinase 3 (Homo sapiens)" readout_name="residual activity" observed_measurement=80
compound="C[S+]([O-])c1ccc(-c2nc(-c3ccc(F)cc3)c(-c3ccncc3)[nH]2)cc1 (configuration not stated)" target_system="Death-associated protein kinase 3 (Homo sapiens)" readout_name="residual activity" observed_measurement=98
